Reference source: patent US10688200B2

assay: Biodistribution of radiotracers in normal mice; type: in vivo, mouse; settings: normal male mice, 30 min
value type: Biodistribution: Muscle (% dose/g)
# value in % dose/g; strip the unit string

Problem: Requested field: Biodistribution: Muscle. Item: O=C(O)CCc1ccc(O)c(CN(CCN(CC(=O)O)Cc2cc(CCC(=O)NCCCCCC(=O)NCCCC[C@H](NC(=O)N[C@@H](CCC(=O)O)C(=O)O)C(=O)O)ccc2O)CC(=O)O)n1 [[^68Ga]4a, metal not drawn]
Solution: 0.61

###

Hi there, I'd appreciate the recorded Biodistribution: Lung for every entry that follows.
test: Biodistribution of radiotracers in normal mice; type: in vivo, mouse; details: normal male mice, 60 min
Give your result in % dose/g as a bare value.

Problem: Give its Biodistribution: Lung value. Item: O=C(O)CC[C@H](NC(=O)N[C@@H](CCCCNC(=O)CCCCCNC(=O)CCc1ccc2c(n1)C[N+]13CC[N+]45CC(=O)[O][68Ga-3]14([O]C(=O)C3)([O]2)[O]c1ccc(CCC(=O)NCCCCCC(=O)NCCCC[C@H](NC(=O)N[C@@H](CCC(=O)O)C(=O)O)C(=O)O)nc1C5)C(=O)O)C(=O)O (stereo partly shown) [[^68Ga]3]
Solution: 1.29

Problem: Also O=C(O)CCc1ccc2c(c1)C[N+]13CC[N+]45CC(=O)[O][68Ga-3]14([O]C(=O)C3)([O]2)[O]c1ccc(CCC(=O)NCCCCCC(=O)NCCCC[C@H](NC(=O)N[C@@H](CCC(=O)O)C(=O)O)C(=O)O)cc1C5 (stereo partly shown) [[^68Ga]1a, reference compound] , if possible.
Solution: 0.93

Problem: Please give the result for C[C@H](NC(=O)CCc1ccc2c(c1)C[N+]13CC[N+]45CC(=O)[O][68Ga-3]41([O]C(=O)C3)([O]c1ccc(CCC(=O)NCCCCCC(=O)NCCCC[C@H](NC(=O)N[C@@H](CCC(=O)O)C(=O)O)C(=O)O)cc1C5)[O]2)C(=O)O (stereo partly shown) [[^68Ga]1d] too.
Solution: 1.10

Problem: Please do the same for O=C(O)CCc1ccc2c(n1)C[N+]13CC[N+]45CC(=O)[O][68Ga-3]14([O]C(=O)C3)([O]2)[O]c1ccc(CCC(=O)NCCCCCC(=O)NCCCC[C@H](NC(=O)N[C@@H](CCC(=O)O)C(=O)O)C(=O)O)nc1C5 (stereo partly shown) [[^68Ga]2] as well.
Solution: 0.72
